The measurements presented in this section are drawn from the supplement of paper PMC10567573.

B1: SOAT1 (parent)
chain: VYYIFERLCAPLFRNIKQEPFSAR

- Variants of: B1
- assayProcedure: protein stability index of a GFP-peptide fusion (GPS, HEK-293T) (PSI 1-6); higher = more stable;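 further: lentivirally expressed fusions sorted by FACS into six bins by GFP to DsRed ratio, PSI derived from sequencing read proportions per bin multiplied by bin number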
- testContext: c terminus: a fixed tail appended
experimentalEndpoint: protein stability index

> print(dat)
   mutantname     experimentalendpoint  measurednumber
1        Q18P  protein stability index            2.92
2        L12T  protein stability index            1.97
3        F13H  protein stability index               2
4        S22K  protein stability index            1.96
